For each record, write down the corresponding EC50.
organism: Rattus norvegicus; assay: Effective concentration by measuring IP2 accumulation using rat fore brain synaptoneurosomes; type: functional

Illustrative cases are given below, each with its answer.
• C[C@@](N)(C(=O)O)c1ccc(C(=O)O)cc1.N[C@@H](Cn1oc(=O)[nH]c1=O)C(=O)O = 1.34 µM
• N[C@@]1(C(=O)O)CC[C@@H](C(=O)O)C1 = 38 µM
• N[C@@H](CC(C=O)CCCCN1C(=O)c2ccccc2C1=O)C(=O)O.N[C@@H](Cn1oc(=O)[nH]c1=O)C(=O)O (stereo partly specified) = 0.27 µM
• N[C@@H](CC(C=O)CCCCN1C(=O)c2ccccc2C1=O)C(=O)O.N[C@@]1(C(=O)O)CC[C@@H](C(=O)O)C1 (stereo partly specified) = 79 µM

Batch lookup, EC50 per entry.
1. C[C@@](N)(C(=O)O)c1ccc(C(=O)O)cc1.N[C@@]1(C(=O)O)CC[C@@H](C(=O)O)C1
2. N[C@@H](Cn1oc(=O)[nH]c1=O)C(=O)O [QUISQUALATE]

Marked response:
1: 224 µM; 2: 0.32 µM

* * *

species: Rattus norvegicus; assay: Effective concentration by measuring IP1 accumulation using rat fore brain synaptoneurosomes; assay type: functional
Quantity measured: log10(EC50) (log10 of the value in µM)
Form field - Quantity: EC50; Unit: µM; Scale: log10

- N[C@@H](CC(C=O)CCCCN1C(=O)c2ccccc2C1=O)C(=O)O.N[C@@]1(C(=O)O)CC[C@@H](C(=O)O)C1 (stereo partly specified): 1.57

Batch lookup, log10(EC50) per entry.
1. N[C@@H](Cn1oc(=O)[nH]c1=O)C(=O)O [QUISQUALATE]
2. N[C@@]1(C(=O)O)CC[C@@H](C(=O)O)C1
3. C[C@@](N)(C(=O)O)c1ccc(C(=O)O)cc1.N[C@@]1(C(=O)O)CC[C@@H](C(=O)O)C1
4. C[C@@](N)(C(=O)O)c1ccc(C(=O)O)cc1.N[C@@H](Cn1oc(=O)[nH]c1=O)C(=O)O
5. N[C@@H](CC(C=O)CCCCN1C(=O)c2ccccc2C1=O)C(=O)O.N[C@@H](Cn1oc(=O)[nH]c1=O)C(=O)O (stereo partly specified)

Marked response:
-1.00
1.23
2.04
-0.20
-0.85

Just for reference, ChEMBL document CHEMBL1130616 is where these values come from.
